# system: BRD3 BD2 WT (Homo sapiens)
# Sequence (Q15059 306-416): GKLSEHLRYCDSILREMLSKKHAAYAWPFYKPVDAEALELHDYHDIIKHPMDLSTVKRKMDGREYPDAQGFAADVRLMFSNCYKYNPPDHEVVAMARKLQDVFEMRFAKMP
# experimental_protocol: ITC
# Format: binding
measurement_kind: pKd
Answers are plain numbers, as −log10 of the molar value.

>>> print(df.to_string())
                                   molecule                      system  measured
0  COC(=O)[C@H](C)[C@@H]1N=C(c2ccc(Cl)cc2)c2ccc(OC)cc2-n2c(C)nnc21  BRD3 BD2 WT (Homo sapiens)      4.62
1  C=CC[C@@H](C(=O)OC)[C@@H]1N=C(c2ccc(Cl)cc2)c2cc(OC)ccc2-n2c(C)nnc21 (racemic)  BRD3 BD2 WT (Homo sapiens)      4.64

Alright, here's another molecule for you.
Could you please provide reported pKd for CCNC(=O)[C@H](C)[C@@H]1N=C(c2ccc(Cl)cc2)c2ccc(OC)cc2-n2c(C)nnc21 (relative stereo) ? Thanks!
4.96

###

# system: BRD3 BD1 L/V (Homo sapiens, UniProt Q15059, L70V)
# Sequence (Q15059 24-144 L70V limits assumed): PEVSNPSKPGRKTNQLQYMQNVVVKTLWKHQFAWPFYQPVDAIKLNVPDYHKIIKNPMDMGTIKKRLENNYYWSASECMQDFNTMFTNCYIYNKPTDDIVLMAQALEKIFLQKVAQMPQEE
# experimental_protocol: ITC
# Format: binding
measurement_kind: Kd (nM)
One number for each entry, in nM.

>>> df
                                   compound  measured
0  CCNC(=O)[C@H](C)[C@@H]1N=C(c2ccc(Cl)cc2)c2ccc(OC)cc2-n2c(C)nnc21 (relative stereo)       410
1  COC(=O)[C@H](C)[C@@H]1N=C(c2ccc(Cl)cc2)c2ccc(OC)cc2-n2c(C)nnc21 (racemic) [Compound 7]       140
2  CC[C@@H](C(=O)OC)[C@@H]1N=C(c2ccc(Cl)cc2)c2ccc(OC)cc2-n2c(C)nnc21 (racemic)       270
3  CC[C@@H](C(=O)OC)[C@@H]1N=C(c2ccc(Cl)cc2)c2cc(OC)ccc2-n2c(C)nnc21 (relative stereo)        80
4  COC(=O)[C@H](C)[C@@H]1N=C(c2ccc(Cl)cc2)c2ccc(OC)cc2-n2c(C)nnc21 [(2R,3S)-7]        90

Alright, here's another compound for you.
Quote Kd with test system BRD3 BD1 L/V (Homo sapiens, UniProt Q15059, L70V) for C=CC[C@@H](C(=O)OC)[C@@H]1N=C(c2ccc(Cl)cc2)c2cc(OC)ccc2-n2c(C)nnc21 (racemic)
270

###

# system: BRDT BD1 WT (Homo sapiens)
# experimental_protocol: competitive AlphaLISA
# Format: binding
pIC50: −log10 of the molar value.
Cut-off 5 on pIC50, inclusive. At or above means fulfilled; below means not fulfilled.

A selection of reference data follows.
In [3]: df
Out[3]:
                                   compound  category_label
0  CC[C@@H](C(=O)OC(C)(C)C)[C@@H]1N=C(c2ccc(Cl)cc2)c2ccc(OC)cc2-n2c(C)nnc21   not fulfilled
1  COC(=O)[C@H](C)[C@@H]1N=C(c2ccc(Cl)cc2)c2cc(OC)ccc2-n2c(C)nnc21 (relative stereo)       fulfilled
2  COC(=O)CC1N=C(c2ccc(Cl)cc2)c2ccc(OC)cc2-n2c(C)nnc21 (centres unmarked)       fulfilled
3  C=CC[C@@H](C(=O)OC)[C@@H]1N=C(c2ccc(Cl)cc2)c2cc(OC)ccc2-n2c(C)nnc21 (racemic)   not fulfilled
4  CC[C@@H](C(=O)OC)[C@@H]1N=C(c2ccc(Cl)cc2)c2ccc(OC)cc2-n2c(C)nnc21 (racemic)   not fulfilled

Does C=CC[C@@H](C(=O)NCC)[C@@H]1N=C(c2ccc(Cl)cc2)c2cc(OC)ccc2-n2c(C)nnc21 (relative stereo) have a reported pIC50 of at least 5?
not fulfilled

Does CCNC(=O)[C@H](C)[C@@H]1N=C(c2ccc(Cl)cc2)c2ccc(OC)cc2-n2c(C)nnc21 (relative stereo) have a reported pIC50 of at least 5?
not fulfilled

Does COC(=O)[C@H](C)[C@@H]1N=C(c2ccc(Cl)cc2)c2ccc(OC)cc2-n2c(C)nnc21 (racemic) have a reported pIC50 of at least 5?
fulfilled

Does COC(=O)CC1N=C(c2ccc(Cl)cc2)c2cc(OC)ccc2-n2c(C)nnc21 (centres unmarked) have a reported pIC50 of at least 5?
fulfilled

Does C=CC[C@@H](C(=O)OC)[C@@H]1N=C(c2ccc(Cl)cc2)c2ccc(OC)cc2-n2c(C)nnc21 (relative stereo) have a reported pIC50 of at least 5?
not fulfilled

Does CCC[C@@H](C(=O)OC)[C@@H]1N=C(c2ccc(Cl)cc2)c2cc(OC)ccc2-n2c(C)nnc21 (relative stereo) have a reported pIC50 of at least 5?
not fulfilled

Does CCN(CC)C(=O)[C@H](C)[C@@H]1N=C(c2ccc(Cl)cc2)c2cc(OC)ccc2-n2c(C)nnc21 (relative stereo) have a reported pIC50 of at least 5?
not fulfilled

Does CC[C@@H](C(=O)OC)[C@@H]1N=C(c2ccc(Cl)cc2)c2cc(OC)ccc2-n2c(C)nnc21 (relative stereo) have a reported pIC50 of at least 5?
not fulfilled

###

# Tested on: L/V BET bromodomains (BD1 and BD2 of BRD2, BRD3 and BRD4)
# experimental_protocol: competitive AlphaLISA (Bio-JQ1 displacement)
# Type: binding, human
# run_conditions: L/V minus WT
measurement_kind: AlphaLISA pIC50 ± SD Δ
Numbers only.

Field: example entries. Status: answers known.
>>> df
                                   compound  measured
0  CC[C@@H](C(=O)OC)[C@@H]1N=C(c2ccc(Cl)cc2)c2ccc(OC)cc2-n2c(C)nnc21 (racemic) [Compound 8]       1.4
1  COC(=O)[C@H](C)[C@@H]1N=C(c2ccc(Cl)cc2)c2cc(OC)ccc2-n2c(C)nnc21 (relative stereo) [Compound 3]       1.2

Alright, here's another compound for you.
Could you please provide reported AlphaLISA pIC50 ± SD Δ for CCNC(=O)[C@H](C)[C@@H]1N=C(c2ccc(Cl)cc2)c2cc(OC)ccc2-n2c(C)nnc21 (relative stereo) [Compound 16] ? Thanks!
1.4

###

# system: BRD3 BD1 L/V (Homo sapiens, UniProt Q15059, L70V)
# experimental_protocol: competitive AlphaLISA
# Type: binding
Please provide measured IC50 for the entries that follow.
One number for each entry, in nM.

In [3]: df
Out[3]:
                                   compound                                    system  units_label  measured
0  C=CC[C@@H](C(=O)OC)[C@@H]1N=C(c2ccc(Cl)cc2)c2ccc(OC)cc2-n2c(C)nnc21 (relative stereo)  BRD3 BD1 L/V (Homo sapiens, UniProt Q15059, L70V)           nM      1580

Kindly give each listed record's IC50.
1. CCN(CC)C(=O)[C@H](C)[C@@H]1N=C(c2ccc(Cl)cc2)c2cc(OC)ccc2-n2c(C)nnc21 (relative stereo)
2. CCC[C@@H](C(=O)OC)[C@@H]1N=C(c2ccc(Cl)cc2)c2cc(OC)ccc2-n2c(C)nnc21 (relative stereo)
3. COC(=O)[C@H](C)[C@@H]1N=C(c2ccc(Cl)cc2)c2cc(OC)ccc2-n2c(C)nnc21 (relative stereo)

1. 398
2. 6310
3. 31.6

Kindly give each listed record's IC50.
1. CC[C@@H](C(=O)OC(C)(C)C)[C@@H]1N=C(c2ccc(Cl)cc2)c2ccc(OC)cc2-n2c(C)nnc21
2. CCNC(=O)[C@H](C)[C@@H]1N=C(c2ccc(Cl)cc2)c2ccc(OC)cc2-n2c(C)nnc21 (relative stereo)
3. C=CC[C@@H](C(=O)NCC)[C@@H]1N=C(c2ccc(Cl)cc2)c2cc(OC)ccc2-n2c(C)nnc21 (relative stereo)
4. CC[C@@H](C(=O)OC)[C@@H]1N=C(c2ccc(Cl)cc2)c2ccc(OC)cc2-n2c(C)nnc21 (racemic)
5. COC(=O)[C@H](C)[C@@H]1N=C(c2ccc(Cl)cc2)c2ccc(OC)cc2-n2c(C)nnc21 (racemic)
6. CC[C@@H](C(=O)OC)[C@@H]1N=C(c2ccc(Cl)cc2)c2cc(OC)ccc2-n2c(C)nnc21 (relative stereo)
7. CCNC(=O)[C@H](CC)[C@@H]1N=C(c2ccc(Cl)cc2)c2ccc(OC)cc2-n2c(C)nnc21 (relative stereo)
8. COC(=O)CC1N=C(c2ccc(Cl)cc2)c2cc(OC)ccc2-n2c(C)nnc21 (stereo not drawn)

1. 5010
2. 501
3. 794
4. 126
5. 100
6. 100
7. 3160
8. 63.1

Kindly give each listed record's IC50.
1. CC[C@@H](C(=O)OC(C)(C)C)[C@@H]1N=C(c2ccc(Cl)cc2)c2cc(OC)ccc2-n2c(C)nnc21
2. COC(=O)CC1N=C(c2ccc(Cl)cc2)c2ccc(OC)cc2-n2c(C)nnc21 (stereo not drawn)
3. C=CC[C@@H](C(=O)OC(C)(C)C)[C@@H]1N=C(c2ccc(Cl)cc2)c2cc(OC)ccc2-n2c(C)nnc21
4. C=CC[C@@H](C(=O)OC(C)(C)C)[C@@H]1N=C(c2ccc(Cl)cc2)c2ccc(OC)cc2-n2c(C)nnc21
5. CC[C@@H](C(=O)N(CC)CC)[C@@H]1N=C(c2ccc(Cl)cc2)c2cc(OC)ccc2-n2c(C)nnc21 (relative stereo)
6. C=CC[C@@H](C(=O)OC)[C@@H]1N=C(c2ccc(Cl)cc2)c2cc(OC)ccc2-n2c(C)nnc21 (racemic)

1: 398; 2: 501; 3: 316; 4: 1260; 5: 501; 6: 126
